Each recorded value in this set is attributed to paper PMC4863944.

Molecular target: REL (human c-Rel) (Homo sapiens)
Construct: FLAG-tagged human REL expressed in 293 cells
Sequence (Q04864 2-619): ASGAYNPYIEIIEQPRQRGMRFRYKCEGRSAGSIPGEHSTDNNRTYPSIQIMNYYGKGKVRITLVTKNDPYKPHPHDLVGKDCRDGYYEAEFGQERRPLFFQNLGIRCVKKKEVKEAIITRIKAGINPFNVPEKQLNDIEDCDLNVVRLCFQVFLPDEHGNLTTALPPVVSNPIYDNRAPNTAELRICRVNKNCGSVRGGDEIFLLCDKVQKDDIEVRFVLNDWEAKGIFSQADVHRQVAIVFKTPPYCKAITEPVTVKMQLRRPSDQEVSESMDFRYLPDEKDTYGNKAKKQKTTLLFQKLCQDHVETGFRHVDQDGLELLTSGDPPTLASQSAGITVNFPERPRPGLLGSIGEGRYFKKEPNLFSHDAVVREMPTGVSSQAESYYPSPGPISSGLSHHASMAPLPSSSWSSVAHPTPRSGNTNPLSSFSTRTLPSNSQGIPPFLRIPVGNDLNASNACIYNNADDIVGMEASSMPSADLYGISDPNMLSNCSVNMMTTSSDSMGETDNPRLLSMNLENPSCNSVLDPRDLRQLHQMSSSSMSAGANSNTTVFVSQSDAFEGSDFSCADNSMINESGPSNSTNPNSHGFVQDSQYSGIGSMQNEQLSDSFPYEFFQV
Assay: EMSA of extracts from CM101-treated transfected […] cells; C27S mutant less inhibited; western blot of covalently modified high molecular weight forms
pIC50: −log10 of the molar value.
Measure name: pIC50

In [3]: df
Out[3]:
                                   compound  measure_name  measured_result
0  CCOC(=O)C1=NO[C@@]2(C=C(Br)C(=O)[C@H]3O[C@H]32)C1 (mixture of isomers)         pIC50            ~5.00

###

Target: p65 (RelA) (Homo sapiens)
Construct: FLAG-tagged human p65 expressed in 293 cells
Sequence (Q04206 whole entry): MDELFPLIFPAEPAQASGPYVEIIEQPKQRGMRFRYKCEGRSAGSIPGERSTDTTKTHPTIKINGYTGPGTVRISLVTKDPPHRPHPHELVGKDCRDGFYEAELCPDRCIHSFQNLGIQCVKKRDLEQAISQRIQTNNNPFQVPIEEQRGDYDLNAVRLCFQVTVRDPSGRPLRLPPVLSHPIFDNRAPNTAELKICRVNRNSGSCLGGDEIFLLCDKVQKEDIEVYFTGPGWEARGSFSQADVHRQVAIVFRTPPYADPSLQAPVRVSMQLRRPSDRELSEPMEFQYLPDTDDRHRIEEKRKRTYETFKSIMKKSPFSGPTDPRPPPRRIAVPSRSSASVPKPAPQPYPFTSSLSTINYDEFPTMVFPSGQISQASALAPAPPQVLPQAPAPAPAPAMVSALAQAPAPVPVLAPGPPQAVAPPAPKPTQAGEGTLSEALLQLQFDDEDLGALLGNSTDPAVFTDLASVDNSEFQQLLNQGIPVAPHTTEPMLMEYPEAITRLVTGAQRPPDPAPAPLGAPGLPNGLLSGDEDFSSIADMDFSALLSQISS
Assay: EMSA of extracts from CM101-treated transfected […] cells; C38S mutant less inhibited; western blot of covalently modified high molecular weight forms
Measure name: IC50

>>> df
                                   molecule  measure_name  measured_result
0  CCOC(=O)C1=NO[C@@]2(C=C(Br)C(=O)[C@H]3O[C@H]32)C1 (mixture of isomers)          IC50           ~10 µM
